molecular target: T1, human serum albumin (human, UniProt P02768 25-609); experiment: ELISA, bacterial lysate on plate-bound antigen, luminescence
T1 construct: Negative control antigen of the screening ELISA; also called HSA
T1 sequence (P02768 25-609 limits assumed): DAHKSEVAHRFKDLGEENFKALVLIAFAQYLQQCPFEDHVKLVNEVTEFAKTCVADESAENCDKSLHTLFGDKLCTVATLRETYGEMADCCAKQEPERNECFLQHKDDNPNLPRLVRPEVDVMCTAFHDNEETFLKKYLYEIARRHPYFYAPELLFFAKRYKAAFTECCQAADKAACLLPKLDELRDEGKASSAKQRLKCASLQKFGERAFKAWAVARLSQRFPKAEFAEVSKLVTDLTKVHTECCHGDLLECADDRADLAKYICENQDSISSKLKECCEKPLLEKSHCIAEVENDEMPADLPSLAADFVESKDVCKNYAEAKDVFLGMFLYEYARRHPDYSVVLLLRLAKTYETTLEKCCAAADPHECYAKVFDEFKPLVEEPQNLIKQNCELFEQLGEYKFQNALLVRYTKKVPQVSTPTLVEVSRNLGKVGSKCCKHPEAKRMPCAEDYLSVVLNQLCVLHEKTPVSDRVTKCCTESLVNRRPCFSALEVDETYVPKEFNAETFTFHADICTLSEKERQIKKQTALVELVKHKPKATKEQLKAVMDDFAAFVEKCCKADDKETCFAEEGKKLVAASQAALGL
The entries below are paired with their reported ELISA HSA (RLU).
Numeric only. Scale: RLU

1. ISOP120ER5P1H4 (designed binder, not shown: small tags and cut ends, FN3 domain (Centyrin); tested as E. coli lysate) LPAPKNLVVSRVTEDSARLSWTAPDAAFDSFNIMYLEDVQCGEAIVLTVPGSERSYDLTGLKPGTEYHVGINGVKGGLRSFPLSAIFTT; 560

Next binder, please.
// query ELISA HSA (RLU) value for entry ISOP120GR5P1H11 (designed binder, not shown: small tags and cut ends, FN3 domain (Centyrin); tested as E. coli lysate) LPAPKNLVVSRVTEDSARLSWTAPDAAFDSFYIAYWEYWGNGEAIGLIVPGSERSYDLTGLKPGTEYHVHIVGVKGGAGSVPLWANFTT
320

The measurements presented in this section are drawn from patent US20220259289A1.
